- testedTarget: Sodium- and chloride-dependent GABA transporter 1 (Mus musculus)
- assayProtocol: Inhibition of mouse GAT1-mediated [3H]GABA uptake expressed in BHK cells
- Type: cell-based
readout: IC50 (µM)
Numeric answer only, unit µM assumed.

The compound COc1ccccc1C1(O)CCN(CCCn2c3ccccc3c3ccccc32)CC1 showed IC50 equal to 19.1

----------
- testedTarget: Sodium- and chloride-dependent GABA transporter 1 (Mus musculus)
- assayProtocol: Residual mouse GAT1-mediated [3H]GABA uptake expressed in human HEK cells at 100 uM
- experimentalContext: HEK293
readout: residual activity (%)
Numeric answer only, unit % assumed.

Response field residual activity (Sodium- and chloride-dependent GABA transporter 1 (Mus musculus)) for item CC(C)(C)CC(C)(C)n1nnnc1CNCCCn1c2ccccc2c2ccccc21 : 75.1

Response field residual activity (Sodium- and chloride-dependent GABA transporter 1 (Mus musculus)) for item c1ccc(Cn2nnnc2CNCC(c2ccccc2)c2ccccc2)cc1 : 72.4

Response field residual activity (Sodium- and chloride-dependent GABA transporter 1 (Mus musculus)) for item c1ccc(Cn2nnnc2CNCCCC(c2ccccc2)c2ccccc2)cc1 : 68.1

Response field residual activity (Sodium- and chloride-dependent GABA transporter 1 (Mus musculus)) for item c1ccc(C(CCCNCc2nnn[nH]2)c2ccccc2)cc1 : 82

Continuing:
Response field residual activity (Sodium- and chloride-dependent GABA transporter 1 (Mus musculus)) for item CC(C)(C)CC(C)(C)n1nnnc1CN1CCNCC1 : 90.2

Response field residual activity (Sodium- and chloride-dependent GABA transporter 1 (Mus musculus)) for item c1ccc(C(CCNCc2nnnn2C2CCCCC2)c2ccccc2)cc1 : 54.6
